Exercise: for every item that follows, state its recorded Percentage of positive cells.
Target: T1, human IGF1R (insulin-like growth factor 1 receptor) on cells (human, UniProt P08069 31-1367)
T1 construct: also called hIGF1R; CHO-S-hIGF1R cells
T1 sequence (P08069 31-1367 limits assumed): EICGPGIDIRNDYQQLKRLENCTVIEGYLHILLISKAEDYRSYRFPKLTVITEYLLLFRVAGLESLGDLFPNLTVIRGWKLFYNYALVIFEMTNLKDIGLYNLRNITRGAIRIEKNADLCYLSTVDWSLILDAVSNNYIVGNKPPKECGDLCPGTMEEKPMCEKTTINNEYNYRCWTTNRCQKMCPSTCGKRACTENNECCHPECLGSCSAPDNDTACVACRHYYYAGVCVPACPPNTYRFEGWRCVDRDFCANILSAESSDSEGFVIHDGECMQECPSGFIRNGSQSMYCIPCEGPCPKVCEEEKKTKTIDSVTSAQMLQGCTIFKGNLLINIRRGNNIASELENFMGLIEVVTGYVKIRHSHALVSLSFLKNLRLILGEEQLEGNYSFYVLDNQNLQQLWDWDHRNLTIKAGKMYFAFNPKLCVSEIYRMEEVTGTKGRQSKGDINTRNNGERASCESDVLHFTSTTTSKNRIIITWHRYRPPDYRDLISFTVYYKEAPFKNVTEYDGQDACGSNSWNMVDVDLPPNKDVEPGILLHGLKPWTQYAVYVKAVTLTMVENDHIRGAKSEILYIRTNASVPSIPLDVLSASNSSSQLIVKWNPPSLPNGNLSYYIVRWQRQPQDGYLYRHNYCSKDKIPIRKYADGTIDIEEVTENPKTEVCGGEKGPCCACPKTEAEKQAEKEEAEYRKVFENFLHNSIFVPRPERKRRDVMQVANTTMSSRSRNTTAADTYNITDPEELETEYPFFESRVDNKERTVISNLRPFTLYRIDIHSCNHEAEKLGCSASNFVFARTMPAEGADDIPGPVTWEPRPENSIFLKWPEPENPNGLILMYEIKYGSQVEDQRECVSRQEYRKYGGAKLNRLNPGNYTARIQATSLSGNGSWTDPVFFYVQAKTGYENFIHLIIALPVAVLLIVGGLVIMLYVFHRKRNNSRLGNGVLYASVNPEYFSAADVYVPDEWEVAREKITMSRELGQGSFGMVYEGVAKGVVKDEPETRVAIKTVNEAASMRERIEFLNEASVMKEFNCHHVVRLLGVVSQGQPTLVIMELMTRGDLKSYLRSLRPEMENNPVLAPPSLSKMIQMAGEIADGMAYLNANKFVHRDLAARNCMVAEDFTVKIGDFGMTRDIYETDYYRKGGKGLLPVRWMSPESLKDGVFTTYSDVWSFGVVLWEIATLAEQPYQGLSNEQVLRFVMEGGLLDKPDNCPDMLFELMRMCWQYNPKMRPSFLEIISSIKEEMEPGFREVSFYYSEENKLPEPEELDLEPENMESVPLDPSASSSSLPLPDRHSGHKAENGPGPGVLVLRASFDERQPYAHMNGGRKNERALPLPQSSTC
Assay: flow cytometry on CHO-S-hIGF1R cells, antibody 20 µg/mL
Excerpt: INSR (insulin receptor) and IGF1R are both members of the superfamily of receptor tyrosine kinases (RTKs). The binding activity of anti-IGF1R antibodies to human IGF1R, human INSR and monkey IGF1R was verified by flow cytometry. […]

Query string: I would be grateful if you could share the reported Percentage of positive cells for anti-IGF1R antibody 12A4 (antibody, V domains shown) VH: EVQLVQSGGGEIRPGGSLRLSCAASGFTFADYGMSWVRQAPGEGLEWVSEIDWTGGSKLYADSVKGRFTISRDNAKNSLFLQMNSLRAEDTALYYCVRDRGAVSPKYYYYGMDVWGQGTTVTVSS VL: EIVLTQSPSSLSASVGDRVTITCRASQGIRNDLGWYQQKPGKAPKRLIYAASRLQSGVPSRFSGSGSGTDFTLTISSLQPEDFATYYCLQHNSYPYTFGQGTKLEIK .
Result string: 50.3%

Query string: I would be grateful if you could share the reported Percentage of positive cells for anti-IGF1R antibody 12D1 (antibody, human IgG1, V domains shown) VH: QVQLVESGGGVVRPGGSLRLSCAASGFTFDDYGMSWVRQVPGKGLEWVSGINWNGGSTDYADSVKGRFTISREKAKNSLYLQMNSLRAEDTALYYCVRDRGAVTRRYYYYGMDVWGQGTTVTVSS VL: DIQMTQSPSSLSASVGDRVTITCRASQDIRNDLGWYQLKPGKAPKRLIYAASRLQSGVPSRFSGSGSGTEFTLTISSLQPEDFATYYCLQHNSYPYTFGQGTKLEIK .
Result string: 39.3%

Query string: I would be grateful if you could share the reported Percentage of positive cells for anti-IGF1R antibody 10D1 (antibody, human IgG1, V domains shown) VH: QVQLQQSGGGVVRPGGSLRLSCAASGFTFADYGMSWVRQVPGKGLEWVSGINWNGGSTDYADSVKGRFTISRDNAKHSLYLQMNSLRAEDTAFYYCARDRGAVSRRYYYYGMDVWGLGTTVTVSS VL: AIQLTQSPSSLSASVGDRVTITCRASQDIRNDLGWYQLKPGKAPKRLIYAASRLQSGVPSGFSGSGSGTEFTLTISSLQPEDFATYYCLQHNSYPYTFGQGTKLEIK .
Result string: 36.5%
